test system: relapsed AML cells; assay: Drug sensitivity assay, 1,536-well, 3-day culture with individual approved drugs at 10 μM, viability by alamarBlue; format: cell-based, human; settings: number of relapsed AML cases out of 18 tested with >70% cell death; 10 μM, 3-day culture
Please go through the items and note down their #Cases >70% cell death.
In your answer, state the number alone without any accompanying words.

// query Consider the molecule CCOc1cc2ncc(C#N)c(Nc3ccc(OCc4cccc(F)c4)c(Cl)c3)c2cc1NC(=O)/C=C/CN(C)C and give its recorded #Cases >70% cell death.
// result 4

// query Please give measured #Cases >70% cell death of the following entry: CC(=O)[C@]1(O)Cc2c(O)c3c(c(O)c2[C@@H](O[C@H]2C[C@H](N)[C@H](O)[C@H](C)O2)C1)C(=O)c1ccccc1C3=O
// result 18

// query Specify #Cases >70% cell death for OCCN1CCN(CCCN2c3ccccc3Sc3ccc(C(F)(F)F)cc32)CC1 and stop.
// result 3

// query Specify #Cases >70% cell death for CCN(CC)CCN1C(=O)c2c(c3c4cccc(Cl)c4n([C@@H]4O[C@H](CO)[C@@H](OC)[C@H](O)[C@H]4O)c3c3[nH]c4c(Cl)cccc4c23)C1=O and stop.
// result 18

// query Entry Nc1ncnc2c1ncn2CCOCP(=O)(O)O needs its #Cases >70% cell death filled in; supply it.
// result 18

// query Retrieve #Cases >70% cell death measured for CC1(C)O[C@@H]2C[C@H]3[C@@H]4C[C@H](F)C5=CC(=O)CC[C@]5(C)[C@H]4[C@@H](O)C[C@]3(C)[C@]2(C(=O)CO)O1 [FLURANDRENOLIDE] and print it.
// result 18

// query Given the molecule N#CCNC(=O)c1ccc(-c2ccnc(Nc3ccc(N4CCOCC4)cc3)n2)cc1 , write its reported #Cases >70% cell death.
// result 14

// query # return recorded #Cases >70% cell death for entry CC(=O)O[C@H]1C(=O)[C@@]2(C)[C@H]([C@H](OC(=O)c3ccccc3)[C@]3(O)C[C@H](OC(=O)[C@H](O)[C@@H](NC(=O)c4ccccc4)c4ccccc4)C(C)=C1C3(C)C)[C@]1(OC(C)=O)CO[C@@H]1C[C@@H]2O
// result 5

Every entry's value here was drawn from patent US20210405025A1.
